target: CDK2/cyclinE1 (Homo sapiens, UniProt P24941); assay: Cyclin-dependent kinase activity assay (continuous ATP coupling assay), CDK2/cyclinE1; settings: CDK2/cyclinE1 5 nM, ATP 300 μM, Rb copeptide 100 μM, 15 min preincubation, pH 7.5, 1% DMSO
METRIC: IC50

Worked examples, 5 molecules total:
MOLECULE	TEST_SYSTEM	IC50
CC(C)(O)CNS(=O)(=O)c1ccc(Nc2ncc(C(F)(F)F)c(-n3cccn3)n2)cc1 [Example 111]	CDK2/cyclinE1 (Homo sapiens, UniProt P24941)	≤ 0.01 µM
O=S(=O)(NCCO)c1ccc(Nc2nccc(-n3cccn3)n2)cc1 [Example 118]	CDK2/cyclinE1 (Homo sapiens, UniProt P24941)	≥ 0.1 µM
CNS(=O)(=O)c1ccc(Nc2ncc(C(F)(F)F)c(-n3cc(C[C@H](C)O)cn3)n2)cc1 (single isomer, unassigned) [Example 6]	CDK2/cyclinE1 (Homo sapiens, UniProt P24941)	≤ 0.01 µM
[2H]C([2H])([2H])NS(=O)(=O)c1ccc(Nc2ncc(C(F)(F)F)c(-n3cccn3)n2)cc1 [Example 17]	CDK2/cyclinE1 (Homo sapiens, UniProt P24941)	≤ 0.01 µM
CNS(=O)(=O)c1ccc(Nc2ncc(C(F)(F)F)c(-n3cc(C4CC4(F)F)cn3)n2)cc1 (single isomer, unassigned) [Example 52]	CDK2/cyclinE1 (Homo sapiens, UniProt P24941)	0.01 to 0.1 µM

Fill in: IC50 of CNS(=O)(=O)c1cccc(Nc2ncc(C(F)(F)F)c(-n3cccn3)n2)c1 [Example 122] is ___
≥ 0.1 µM

Fill in: IC50 of CNS(=O)(=O)c1ccc(Nc2ncc(C(F)(F)F)c(-n3cc([C@H]4CC[C@H](O)C4)cn3)n2)cc1 (single isomer, unassigned) [Example 79] is ___
≤ 0.01 µM
